The reader will find reported % 629 mAb Bindng values listed item by item below.
# System: anti-CR2 SCR1-2 mAb 629
# protocol-text: MBP-CR2 SCR1-2-629 mAb ELISA
# Type: binding
# assay-setup: mutant MBP-CR2 SCR1-2 relative to wild-type; plate-bound 629 mAb
The reply should be a number in %, with the unit left off.

In the examples that follow, each entry is paired with its recorded % 629 mAb Bindng.
{"columns": ["molecule", "readout", "number"],
 "data": [
  ["Y16A: single-site mutant of recombinant MBP-CR2 SCR1-2 (protein, left off: large carriers; small tags and cut ends) ISCGSPPPILNGRISAYSTPIAVGTVIRYSCSGTFRLIGEKSLLCITKDKVDGTWDKPAPKCEYFNKYSSCPEPIVPGGYKIRGSTPYRHGDSVTFACKTNFSMNGNKSVWCQANNMWGPTRLPTCVSVFPLE", "% 629 mAb Bindng", 154.4],
  ["T34A: single-site mutant of recombinant MBP-CR2 SCR1-2 (protein, left off: large carriers; small tags and cut ends) ISCGSPPPILNGRISYYSTPIAVGTVIRYSCSGAFRLIGEKSLLCITKDKVDGTWDKPAPKCEYFNKYSSCPEPIVPGGYKIRGSTPYRHGDSVTFACKTNFSMNGNKSVWCQANNMWGPTRLPTCVSVFPLE", "% 629 mAb Bindng", 84.9]
]}

Below: the item to evaluate.
In: Return reported % 629 mAb Bindng; argument: N11A: single-site mutant of recombinant MBP-CR2 SCR1-2 (protein, left off: large carriers; small tags and cut ends) ISCGSPPPILAGRISYYSTPIAVGTVIRYSCSGTFRLIGEKSLLCITKDKVDGTWDKPAPKCEYFNKYSSCPEPIVPGGYKIRGSTPYRHGDSVTFACKTNFSMNGNKSVWCQANNMWGPTRLPTCVSVFPLE
Out: 87.5
